# Test system: P. berghei (sensitive strain)
# Experiment notes: blood-schizontocidal activity against P. berghei infection in mice
# Format: in vivo, Plasmodium berghei
# Experimental conditions: 25 mg/kg/day × 4, oral, Swiss mice
Measurement kind: P. berghei blood-schizontocidal activity (mice cured/treated)

> print(dat)
                                   molecule            experimental.target  recorded.value
1  CCCCCCCOc1c(OC)cc(NC(C)CCCNC(=O)C(N)CCCNC(=N)N)c2nc(C(C)(C)C)ccc12 (stereo not drawn) [compound 111]  P. berghei (sensitive strain)  inactive (0/6)
2  CCCCCCCCOc1c(OC)cc(NC(C)CCCN)c2nc(C(C)(C)C)ccc12 (stereo not drawn) [compound 49]  P. berghei (sensitive strain)  curative (6/6)
3  CCCCCOc1c(OC)cc(NC(C)CCCN)c2nc(C(C)(C)C)ccc12 (stereo not drawn) [compound 46]  P. berghei (sensitive strain)  curative (6/6)
4  CCN(CC)CCCC(C)Nc1ccnc2cc(Cl)ccc12 (stereo not drawn) [CQ, chloroquine, reference compound]  P. berghei (sensitive strain)  curative (6/6)
5  CCCCCCCOc1c(OC)cc(NC(C)CCCN)c2nc(C(C)(C)C)ccc12 (stereo not drawn) [compound 48]  P. berghei (sensitive strain)  curative (6/6)
6  CCCCCCOc1c(OC)cc(NC(C)CCCN)c2nc(C(C)(C)C)ccc12 (stereo not drawn) [compound 47]  P. berghei (sensitive strain)  curative (6/6)
7  CCCCCCCCOc1c(OC)cc(NC(C)CCCNC(=O)C(N)Cc2ccccc2)c2nc(C(C)(C)C)ccc12 (stereo not drawn) [compound 121]  P. berghei (sensitive strain)  inactive (0/6)
8  CCCCCOc1c(OC)cc(NC(C)CCCNC(=O)C(N)CCCCN)c2nc(C(C)(C)C)ccc12 (stereo not drawn) [compound 92]  P. berghei (sensitive strain)  inactive (0/6)
9  CCCCCCOc1c(OC)cc(NC(C)CCCNC(=O)C(N)CCCCN)c2nc(C(C)(C)C)ccc12 (stereo not drawn) [compound 99]  P. berghei (sensitive strain)  inactive (0/6)
